System: fibroblasts (46BR.1N)
Test protocol: LDH cytotoxicity test, fibroblasts
Type: cell-based
Experimental conditions: 48 h, 50-150 μg/mL
Residues, ends and D or L forms follow the SMILES beside them.

| Compound | cytotoxicity (LDH), in words |
| --- | --- |
| CC(C)C[C@H](NC(=O)[C@H](CCCNC(=N)N)NC(=O)OCc1ccccc1)C(=O)N[C@H](CN)C(C)C [Compound A-197] | no cytotoxicity |
| CC(C)[C@@H](CNC(=O)/C=C/c1ccccc1)NC(=O)[C@H](Cc1c[nH]cn1)NC(=O)[C@H](CCCCN)NC(=O)OCc1ccccc1 [Compound A-174] | no cytotoxicity |
| CC(C)[C@H](NC(=O)[C@H](Cc1c[nH]cn1)NC(=O)[C@H](CCCNC(=N)N)NC(=O)OCc1ccccc1)C(=O)NCCc1ccccc1 [Compound A-219] (HELM PEPTIDE1{[O=C(OCc1ccccc1)[*:2]].R.H.V.[c1ccc(CCN[*:1])cc1]}$$$$V2.0) | slight cytotoxicity |
| CC(C)[C@H](NC(=O)[C@H](CCCNC(=N)N)NC(=O)[C@H](CCCNC(=N)N)NC(=O)OCc1ccccc1)C(=O)NCCc1ccccc1 [Compound A-221] (HELM PEPTIDE1{[O=C(OCc1ccccc1)[*:2]].R.R.V.[c1ccc(CCN[*:1])cc1]}$$$$V2.0) | slight cytotoxicity |

----------
Test system: fibroblasts (46BR.1N)
Test protocol: LDH cytotoxicity test, fibroblasts
Format: cell-based
Experimental conditions: LDH, 48 h
Residues, ends and D or L forms follow the SMILES beside them.
Let's look at some compounds and their measured concentration at which cytotoxic effect starts.

| Compound | Measured value |
| --- | --- |
| CC(C)[C@H](NC(=O)[C@H](Cc1c[nH]cn1)NC(=O)[C@H](CCCCN)NC(=O)OCc1ccccc1)C(=O)NCCc1ccccc1 [Compound A-220] (HELM PEPTIDE1{[O=C(OCc1ccccc1)[*:2]].K.H.V.[c1ccc(CCN[*:1])cc1]}$$$$V2.0) | > 150 µg/mL |

Suppose we examine the compound CC(C)C[C@H](NC(=O)[C@H](CCCNC(=N)N)NC(=O)OCc1ccccc1)C(=O)N[C@H](CNC(=O)C(=Cc1ccccc1)c1ccccc1)C(C)C ; what concentration at which cytotoxic effect starts value has been reported?
50 µg/mL

----------
System: P. aeruginosa ATCC 10145
Test protocol: MIC/MBC broth microdilution, P. aeruginosa
Assay type: cell-based
Experimental conditions: water additive EtOH
Non-standard residues stand in square brackets, D forms with d. Residues, ends and D or L forms follow the SMILES beside them. *: point of attachment. NHPhenethyl = c1ccc(CCN*)cc1; β3hV = CC(C)[C@H](N)CC(=O)O; Cbz = O=C(OCc1ccccc1)*
Readout label: MIC

The following molecules have reported results that may help.
| Molecule | Subject of test | MIC |
| --- | --- | --- |
| CC(C)[C@@H](CNC(=O)C(=Cc1ccccc1)c1ccccc1)NC(=O)[C@H](Cc1c[nH]cn1)NC(=O)[C@H](CCCNC(=N)N)NC(=O)OCc1ccccc1 [Compound A-176] | P. aeruginosa ATCC 10145 | 256 µg/mL |
| CC(C)C[C@H](NC(=O)[C@H](CCCCNC(=N)N)NC(=O)OCc1ccccc1)C(=O)N[C@H](CNC(=O)/C=C/c1ccccc1)C(C)C [Compound A-134] | P. aeruginosa ATCC 10145 | > 512 µg/mL |
| CC(C)C[C@H](NC(=O)[C@H](CCCNC(=N)N)NC(=O)OCc1ccccc1)C(=O)N[C@H](CC(=O)NCCc1ccccc1)C(C)C [Compound A-152] (Cbz-Arg-Leu-[β3hV]-NHPhenethyl) | P. aeruginosa ATCC 10145 | > 512 µg/mL |

Consider the molecule shown here: CC(C)C[C@H](NC(=O)[C@H](CCCNC(=N)N)NC(=O)OCc1ccccc1)C(=O)N[C@H](CNC(=O)C(=Cc1ccccc1)c1ccccc1)C(C)C [Compound A-164] What is its recorded MIC?
> 512 µg/mL

Name the recorded MIC for CC(C)[C@@H](CNC(=O)C(=Cc1ccccc1)c1ccccc1)NC(=O)[C@H](Cc1c[nH]cn1)NC(=O)[C@H](CCCCNC(=N)N)NC(=O)OCc1ccccc1 [Compound A-193] .
> 512 µg/mL

Name the recorded MIC for CC(C)C[C@H](NC(=O)[C@H](CCCNC(=N)N)NC(=O)OCc1ccccc1)C(=O)N[C@H](CN)C(C)C [Compound A-197] .
> 512 µg/mL

Could you share which MIC value was measured for C=CCC(=O)NC[C@@H](NC(=O)[C@H](CC(C)C)NC(=O)[C@H](CCCNC(=N)N)NC(=O)OCc1ccccc1)C(C)C [Compound A-209] ?
> 512 µg/mL

Bench note: what MIC did CC(C)[C@H](NC(=O)[C@H](Cc1c[nH]cn1)NC(=O)[C@H](CCCNC(=N)N)NC(=O)OCc1ccccc1)C(=O)NCCc1ccccc1 [Compound A-219] (HELM PEPTIDE1{[O=C(OCc1ccccc1)[*:2]].R.H.V.[c1ccc(CCN[*:1])cc1]}$$$$V2.0) show?
512 µg/mL

// lookup MIC for CC(C)C[C@H](NC(=O)[C@H](CCCNC(=N)N)NC(=O)OCc1ccccc1)C(=O)N[C@H](CNC(=O)/C=C/c1ccccc1)C(C)C [Compound A-20]
> 512 µg/mL

Any idea what its MIC is? The molecule is CC(C)[C@H](NC(=O)[C@H](Cc1c[nH]cn1)NC(=O)[C@H](CCCCN)NC(=O)OCc1ccccc1)C(=O)NCCc1ccccc1 [Compound A-220] (HELM PEPTIDE1{[O=C(OCc1ccccc1)[*:2]].K.H.V.[c1ccc(CCN[*:1])cc1]}$$$$V2.0)
512 µg/mL

Where do the numbers come from? From paper PMC12332667.
